Test system: Staphylococcus aureus
assay_info: Antibacterial activity against Staphylococcus aureus […] assessed as inhibition of bacterial growth incubated for 24 hrs by broth dilution assay
Assay type: functional
Positions of bridges follow the written chain, without caps; N, C: chain ends. Non-standard residues stand in square brackets, D forms with d. Residues, ends and D or L forms follow the SMILES beside them. S5 = C=CCCC[C@](C)(N)C(=O)O
Below, each of the compounds is paired with its reported MIC value.

compound	experimental_system	cmp	MIC (µg/mL)
CC[C@H](C)[C@H](NC(=O)[C@H](CCCNC(=N)N)NC(=O)[C@@H](N)CCCCN)C(=O)N[C@H](C(=O)N[C@@H](CCCNC(=N)N)C(=O)N[C@@H](CCCNC(=N)N)C(=O)N[C@H](C(=O)N[C@@]1(C)CCC/C=C\CCC[C@@](C)(C(=O)O)NC(=O)[C@H](CC(C)C)NC(=O)[C@H](Cc2ccccc2)NC(=O)[C@H]([C@@H](C)CC)NC1=O)[C@@H](C)CC)C(C)C (H-KRIVRRI[S5]IFL[S5]-OH; staple (Z) 8-12)	Staphylococcus aureus	=	80
CC[C@H](C)[C@@H]1NC(=O)[C@H](CCCCN)NC(=O)[C@H]([C@@H](C)CC)NC(=O)[C@H](CCCNC(=N)N)NC(=O)[C@@](C)(NC(=O)[C@@H](NC(=O)[C@@H](NC(=O)[C@H](CCCNC(=N)N)NC(=O)[C@@H](N)CCCCN)[C@@H](C)CC)C(C)C)CCC/C=C\CCC[C@@](C)(C(=O)O)NC(=O)[C@H](CC(C)C)NC(=O)[C@H](Cc2ccccc2)NC1=O (H-KRIV[S5]RIKIFL[S5]-OH; staple (Z) 5-12)	Staphylococcus aureus	>	320
